system: Staphylococcus aureus; experiment: Antimicrobial activity against Staphylococcus aureus FDA209P by standard serial-dilution technique; assay type: functional
measured quantity: MIC (µg/mL)
Entry rule: numbers only, all in µg/mL.

- smiles string: "CC(C)[C@@H]1NC(=O)[C@@H]2[C@H](C)CCN2C(=O)CN/C(=N\\[C@H](C(=O)N[C@H](C(=O)N[C@H](CNC(=O)N2CCSC2)c2nccs2)[C@@H](C)c2ccccc2)C(C)(C)C)[C@H](C(C)(C)C)NC1=O"
  MIC [µg/mL]: 4
- smiles string: "CC(C)[C@@H]1NC(=O)[C@@H]2[C@H](C)CCN2C(=O)CN/C(=N\\[C@H](C(=O)N[C@H](C(=O)N[C@H](CNC(=O)NCc2ccccc2)c2nccs2)[C@@H](C)c2ccccc2)C(C)(C)C)[C@H](C(C)(C)C)NC1=O"
  MIC [µg/mL]: 8
- smiles string: "CC(C)[C@@H]1NC(=O)[C@@H]2[C@H](C)CCN2C(=O)CN/C(=N\\[C@H](C(=O)N[C@H](C(=O)N[C@H](CC(=O)N2CCN(C(=O)OC(C)(C)C)CC2)c2nccs2)[C@@H](C)c2ccccc2)C(C)(C)C)[C@H](C(C)(C)C)NC1=O"
  MIC [µg/mL]: 8

Record `CC(C)[C@@H]1NC(=O)[C@@H]2[C@H](C)CCN2C(=O)CN/C(=N\[C@H](C(=O)N[C@H](C(=O)N[C@H](CC(=O)NCc2ccccc2)c2nccs2)[C@@H](C)c2ccccc2)C(C)(C)C)[C@H](C(C)(C)C)NC1=O` . Reported MIC: 8

Record `COC(=O)C[C@@H](NC(=O)[C@@H](NC(=O)[C@@H](/N=C1\NCC(=O)N2CC[C@@H](C)[C@H]2C(=O)N[C@@H](C(C)C)C(=O)N[C@H]1C(C)(C)C)C(C)(C)C)[C@@H](C)c1ccccc1)c1nccs1` . Reported MIC: 1

Record `CC(C)[C@@H]1NC(=O)[C@@H]2[C@H](C)CCN2C(=O)CN/C(=N\[C@H](C(=O)N[C@H](C(=O)N[C@H](CC(=O)N2CCNCC2)c2nccs2)[C@@H](C)c2ccccc2)C(C)(C)C)[C@H](C(C)(C)C)NC1=O` . Reported MIC: 64

###

system: Enterococcus faecium; experiment: Antimicrobial activity against Enterococcus faecium NCTC 12201 by standard serial-dilution technique; format: functional
Please note: MIC exactly at 8 µg/mL is Criterion not met. Only values below 8 µg/mL get Criterion met.

For orientation, consider the following solved cases.
- smiles string: "CC(=O)NC[C@H]1CN(c2ccc(N3CCOCC3)c(F)c2)C(=O)O1"
  class label: "Criterion met"
- smiles string: "CN[C@H](CC(C)C)C(=O)N[C@H]1C(=O)N[C@@H](CC(N)=O)C(=O)N[C@H]2C(=O)N[C@H]3C(=O)N[C@H](C(=O)N[C@H](C(=O)O)c4cc(O)cc(O)c4-c4cc3ccc4O)[C@H](O)c3ccc(c(Cl)c3)Oc3cc2cc(c3O[C@@H]2O[C@H](CO)[C@@H](O)[C@H](O)[C@H]2O[C@H]2C[C@](C)(N)[C@H](O)[C@H](C)O2)Oc2ccc(cc2Cl)[C@H]1O"
  class label: "Criterion not met"
- smiles string: "CC(C)SC(=O)C[C@@H](NC(=O)[C@@H](NC(=O)[C@@H](/N=C1\\NCC(=O)N2CC[C@@H](C)[C@H]2C(=O)N[C@@H](C(C)C)C(=O)N[C@H]1C(C)(C)C)C(C)(C)C)[C@@H](C)c1ccccc1)c1nccs1"
  class label: "Criterion met"
- smiles string: "CC(C)[C@@H]1NC(=O)[C@@H]2[C@H](C)CCN2C(=O)CN/C(=N\\[C@H](C(=O)N[C@H](C(=O)N[C@H](CC(=O)N2CCOCC2)c2nccs2)[C@@H](C)c2ccccc2)C(C)(C)C)[C@H](C(C)(C)C)NC1=O"
  class label: "Criterion not met"

In: Strictly below 8 µg/mL in MIC? `CC(C)[C@@H]1NC(=O)[C@@H]2[C@H](C)CCN2C(=O)CN/C(=N\[C@H](C(=O)N[C@H](C(=O)N[C@H](CC(=O)N2CCNCC2)c2nccs2)[C@@H](C)c2ccccc2)C(C)(C)C)[C@H](C(C)(C)C)NC1=O`
Out: Criterion not met

###

test system: Staphylococcus aureus; experiment: Antimicrobial activity against Staphylococcus aureus FDA209P by standard serial-dilution technique; type: functional
measured quantity: log10 MIC (log10 of the value in µg/mL)
Please note: log10 values; quantity MIC; unit µg/mL.

Example compounds with recorded log10 MIC:
- smiles string: "CCCSC(=O)C[C@@H](NC(=O)[C@@H](NC(=O)[C@@H](/N=C1\\NCC(=O)N2CC[C@@H](C)[C@H]2C(=O)N[C@@H](C(C)C)C(=O)N[C@H]1C(C)(C)C)C(C)(C)C)[C@@H](C)c1ccccc1)c1nccs1"
  observed: -0.30
- smiles string: "CC(C)[C@@H]1NC(=O)[C@@H]2[C@H](C)CCN2C(=O)CN/C(=N\\[C@H](C(=O)N[C@H](C(=O)N[C@H](CC(=O)N2CCSCC2)c2nccs2)[C@@H](C)c2ccccc2)C(C)(C)C)[C@H](C(C)(C)C)NC1=O"
  observed: 0.90
- smiles string: "CCC(=O)C[C@@H](NC(=O)[C@@H](NC(=O)[C@@H](/N=C1\\NCC(=O)N2CC[C@@H](C)[C@H]2C(=O)N[C@@H](C(C)C)C(=O)N[C@H]1C(C)(C)C)C(C)(C)C)[C@@H](C)c1ccccc1)c1nccs1"
  observed: 0.00
- smiles string: "C#CCNC(=O)C[C@@H](NC(=O)[C@@H](NC(=O)[C@@H](/N=C1\\NCC(=O)N2CC[C@@H](C)[C@H]2C(=O)N[C@@H](C(C)C)C(=O)N[C@H]1C(C)(C)C)C(C)(C)C)[C@@H](C)c1ccccc1)c1nccs1"
  observed: 0.90

Record `CC(C)[C@@H]1NC(=O)[C@@H]2[C@H](C)CCN2C(=O)CN/C(=N\[C@H](C(=O)N[C@H](C(=O)N[C@H](CC(=O)NN)c2nccs2)[C@@H](C)c2ccccc2)C(C)(C)C)[C@H](C(C)(C)C)NC1=O` . Reported log10 MIC: 1.20

Record `CC(C)[C@@H]1NC(=O)[C@@H]2[C@H](C)CCN2C(=O)CN/C(=N\[C@H](C(=O)N[C@H](C(=O)N[C@H](CC(=O)N2CCN(Cc3ccccc3)CC2)c2nccs2)[C@@H](C)c2ccccc2)C(C)(C)C)[C@H](C(C)(C)C)NC1=O` . Reported log10 MIC: 0.60

Record `CC(C)SC(=O)C[C@@H](NC(=O)[C@@H](NC(=O)[C@@H](/N=C1\NCC(=O)N2CC[C@@H](C)[C@H]2C(=O)N[C@@H](C(C)C)C(=O)N[C@H]1C(C)(C)C)C(C)(C)C)[C@@H](C)c1ccccc1)c1nccs1` . Reported log10 MIC: -0.30

Record `CC(C)[C@@H]1NC(=O)[C@@H]2[C@H](C)CCN2C(=O)CN/C(=N\[C@H](C(=O)N[C@H](C(=O)N[C@H](CC(=O)N2CCOCC2)c2nccs2)[C@@H](C)c2ccccc2)C(C)(C)C)[C@H](C(C)(C)C)NC1=O` . Reported log10 MIC: 1.20

###

Entries and their measured MIC follow.
system: Staphylococcus aureus; assay: Antimicrobial activity against methicillin-resistant Staphylococcus aureus HH1 by standard serial-dilution technique; assay type: functional
Entry rule: numbers only, all in µg/mL.

- smiles string: "CC(C)[C@@H]1NC(=O)[C@@H]2[C@H](C)CCN2C(=O)CN/C(=N\\[C@H](C(=O)N[C@H](C(=O)N[C@H](CC(=O)N2CCN(Cc3ccccc3)CC2)c2nccs2)[C@@H](C)c2ccccc2)C(C)(C)C)[C@H](C(C)(C)C)NC1=O"
  MIC [µg/mL]: 4

Record `C#CCN1CCN(C(=O)C[C@@H](NC(=O)[C@@H](NC(=O)[C@@H](/N=C2\NCC(=O)N3CC[C@@H](C)[C@H]3C(=O)N[C@@H](C(C)C)C(=O)N[C@H]2C(C)(C)C)C(C)(C)C)[C@@H](C)c2ccccc2)c2nccs2)CC1` . Reported MIC: 16

Record `CC(C)[C@@H]1NC(=O)[C@@H]2[C@H](C)CCN2C(=O)CN/C(=N\[C@H](C(=O)N[C@H](C(=O)N[C@H](CC(=O)O)c2nccs2)[C@@H](C)c2ccccc2)C(C)(C)C)[C@H](C(C)(C)C)NC1=O` . Reported MIC: 64

###

system: Staphylococcus aureus; assay: Antimicrobial activity against methicillin-resistant Staphylococcus aureus assessed as rate of residual activity; format: functional; parameters: concentration or dose not given beside the values
Entries and their measured Activity follow.
Entry rule: numbers only, all in %.

Example compounds with recorded Activity:
- smiles string: "CC(C)[C@@H]1NC(=O)[C@@H]2[C@H](C)CCN2C(=O)CN/C(=N\\[C@H](C(=O)N[C@H](C(=O)N[C@H](CNC(=O)NCc2ccccc2)c2nccs2)[C@@H](C)c2ccccc2)C(C)(C)C)[C@H](C(C)(C)C)NC1=O"
  Activity (%): 100
- smiles string: "CC(C)[C@@H]1NC(=O)[C@@H]2[C@H](C)CCN2C(=O)CN/C(=N\\[C@H](C(=O)N[C@H](C(=O)N[C@H](CC(=O)NN)c2nccs2)[C@@H](C)c2ccccc2)C(C)(C)C)[C@H](C(C)(C)C)NC1=O"
  Activity (%): 86
- smiles string: "CC(C)[C@@H]1NC(=O)[C@@H]2[C@H](C)CCN2C(=O)CN/C(=N\\[C@H](C(=O)N[C@H](C(=O)N[C@H](CC(=O)NCc2ccccc2)c2nccs2)[C@@H](C)c2ccccc2)C(C)(C)C)[C@H](C(C)(C)C)NC1=O"
  Activity (%): 71
- smiles string: "CCCSC(=O)C[C@@H](NC(=O)[C@@H](NC(=O)[C@@H](/N=C1\\NCC(=O)N2CC[C@@H](C)[C@H]2C(=O)N[C@@H](C(C)C)C(=O)N[C@H]1C(C)(C)C)C(C)(C)C)[C@@H](C)c1ccccc1)c1nccs1"
  Activity (%): 0
- smiles string: "CC(C)SC(=O)C[C@@H](NC(=O)[C@@H](NC(=O)[C@@H](/N=C1\\NCC(=O)N2CC[C@@H](C)[C@H]2C(=O)N[C@@H](C(C)C)C(=O)N[C@H]1C(C)(C)C)C(C)(C)C)[C@@H](C)c1ccccc1)c1nccs1"
  Activity (%): 0
- smiles string: "CC(C)[C@@H]1NC(=O)[C@@H]2[C@H](C)CCN2C(=O)CN/C(=N\\[C@H](C(=O)N[C@H](C(=O)N[C@H](CC(=O)N2CCN(Cc3ccccc3)CC2)c2nccs2)[C@@H](C)c2ccccc2)C(C)(C)C)[C@H](C(C)(C)C)NC1=O"
  Activity (%): 84
- smiles string: "CC(C)[C@@H]1NC(=O)[C@@H]2[C@H](C)CCN2C(=O)CN/C(=N\\[C@H](C(=O)N[C@H](C(=O)N[C@H](CC(=O)N2CCOCC2)c2nccs2)[C@@H](C)c2ccccc2)C(C)(C)C)[C@H](C(C)(C)C)NC1=O"
  Activity (%): 100
- smiles string: "C#CCNC(=O)C[C@@H](NC(=O)[C@@H](NC(=O)[C@@H](/N=C1\\NCC(=O)N2CC[C@@H](C)[C@H]2C(=O)N[C@@H](C(C)C)C(=O)N[C@H]1C(C)(C)C)C(C)(C)C)[C@@H](C)c1ccccc1)c1nccs1"
  Activity (%): 100

# next compound below
Record `CC(C)[C@@H]1NC(=O)[C@@H]2[C@H](C)CCN2C(=O)CN/C(=N\[C@H](C(=O)N[C@H](C(=O)N[C@H](CC(=O)N2CCSC2)c2nccs2)[C@@H](C)c2ccccc2)C(C)(C)C)[C@H](C(C)(C)C)NC1=O` . Reported Activity: 100

These measurements were taken from ChEMBL document CHEMBL1255213.
